Data provenance: paper PMC9911399

Reported binding signal values for the following binders.
# measurement target: T1, RBFOX1 RRM (Homo sapiens, UniProt Q9NWB1 109-208)
# T1 sequence: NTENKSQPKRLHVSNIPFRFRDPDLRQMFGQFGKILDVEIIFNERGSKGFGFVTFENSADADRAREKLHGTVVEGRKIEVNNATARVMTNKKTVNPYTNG
# protocol notes: EMSA; HiTS-Eq, 1 nM pool, 10 min; buffer printed only for the single-RNA assays: 10 mM Tris pH 7.5, 150 mM NaCl, 3.4 mM EDTA, 0.001% NP-40, 30 C
# measurement setup: tags: His6 N-terminal (pET28a); label: 5' 32P
Whole data set: some 16,000 sequences, median “ka relative to ugcaugu” near 0.0091, cut for the highest 2% near 0.032. The sample as a whole holds a higher share of the highest values than the screen did.

# binder, observed
records = [
    ("UAGCUCG (DNA:RNA) RNA: GGGAGACCGGAAUUCAGAUUGUCCUAGCUCGUUAAAUCCCGUCGUAGCCACCA DNA 1: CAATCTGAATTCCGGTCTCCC DNA 2: TGGTGGCTACGACGGGATT", "0.0341 KA relative to UGCAUGU"),
    ("UCGCUCG (DNA:RNA) RNA: GGGAGACCGGAAUUCAGAUUGUCCUCGCUCGUUAAAUCCCGUCGUAGCCACCA DNA 1: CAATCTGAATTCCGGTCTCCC DNA 2: TGGTGGCTACGACGGGATT", "0.0321 KA relative to UGCAUGU"),
    ("UAGCCCG (DNA:RNA) RNA: GGGAGACCGGAAUUCAGAUUGUCCUAGCCCGUUAAAUCCCGUCGUAGCCACCA DNA 1: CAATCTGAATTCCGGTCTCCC DNA 2: TGGTGGCTACGACGGGATT", "0.0123 KA relative to UGCAUGU"),
]

Per the record, GUCGUGC (DNA:RNA) RNA: GGGAGACCGGAAUUCAGAUUGUCCGUCGUGCUUAAAUCCCGUCGUAGCCACCA DNA 1: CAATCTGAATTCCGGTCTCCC DNA 2: TGGTGGCTACGACGGGATT has binding signal of 0.0206 KA relative to UGCAUGU

Per the record, GUCCCCC (DNA:RNA) RNA: GGGAGACCGGAAUUCAGAUUGUCCGUCCCCCUUAAAUCCCGUCGUAGCCACCA DNA 1: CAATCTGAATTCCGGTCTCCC DNA 2: TGGTGGCTACGACGGGATT has binding signal of 0.0163 KA relative to UGCAUGU

Per the record, UCGCUUG (DNA:RNA) RNA: GGGAGACCGGAAUUCAGAUUGUCCUCGCUUGUUAAAUCCCGUCGUAGCCACCA DNA 1: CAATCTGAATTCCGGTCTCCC DNA 2: TGGTGGCTACGACGGGATT has binding signal of 0.0368 KA relative to UGCAUGU

Per the record, UUUAAGG (DNA:RNA) RNA: GGGAGACCGGAAUUCAGAUUGUCCUUUAAGGUUAAAUCCCGUCGUAGCCACCA DNA 1: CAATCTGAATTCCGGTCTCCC DNA 2: TGGTGGCTACGACGGGATT has binding signal of 0.0043 KA relative to UGCAUGU

Per the record, UCCUCGC (DNA:RNA) RNA: GGGAGACCGGAAUUCAGAUUGUCCUCCUCGCUUAAAUCCCGUCGUAGCCACCA DNA 1: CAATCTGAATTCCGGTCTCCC DNA 2: TGGTGGCTACGACGGGATT has binding signal of 0.00514 KA relative to UGCAUGU

Per the record, GUAGGCC (DNA:RNA) RNA: GGGAGACCGGAAUUCAGAUUGUCCGUAGGCCUUAAAUCCCGUCGUAGCCACCA DNA 1: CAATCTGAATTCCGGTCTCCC DNA 2: TGGTGGCTACGACGGGATT has binding signal of 0.00837 KA relative to UGCAUGU
